Measured values drawn from PubChem BioAssay (NCI) for this set.

Each entry below lists one item and its recorded TGI value.
Tested on: CCRF-CEM leukemia
Test: NCI tumour cell line growth inhibition, 48 h

compound | TGI
NC(N)=NS(=O)(=O)c1ccc(Nc2c3ccccc3nc3c(C(=O)Nc4ccc(S(N)(=O)=O)cc4)cccc23)cc1 | > 100 µM
O=C1c2ccccc2S(=O)(=O)c2cc(-c3nn[nH]n3)ccc21 | > 100 µM
C=CC(Cl)(CBr)CCC(Br)C(C)(C)Cl (stereo not given) | 29 µM
O=C1CC(c2ccccc2)n2cccc21 (stereo not given) | > 100 µM
CC(=O)Nc1ccc(/C=C/C(=O)N2CC(CCl)c3c2cc(N)c2ccccc32)cc1 (stereo not given) | 50 µM
Cc1cc2c([nH]c3ccccc32)c2c1OC(C)(C)C1C3CC(C)(C)Oc4c(C)cc5c6ccccc6n(c5c43)C21 (stereo not given) | > 100 µM
CCN(CC)C(=O)C(C)n1cc(C)c(=O)[nH]c1=O (stereo not given) | > 100 µM
CC1OC(n2cc(F)c(=O)[nH]c2=O)C=CC1=O (stereo not given) | 53 µM
COC(=O)C(CCSC)NC(=O)Cc1ccc(C(=O)c2ccccc2)cc1 (stereo not given) | > 100 µM
O=C1CSC(c2cccc([N+](=O)[O-])c2)N1c1ccc(-n2c(-c3ccccc3)nc3ccccc3c2=O)cc1 (stereo not given) | > 100 µM

====

Each entry below lists one item and its recorded log10 TGI value.
System: HL-60(TB) leukemia
Assay: NCI tumour cell line growth inhibition, 48 h
endpoint: log10 TGI (log10 of the value in µM)

compound | numericValue
CCN(CC)c1ccc(C(=O)c2ccc(N(CC)CC)cc2)cc1 | 0.40
Cc1cccc(NC(=O)c2cccc([N+](=O)[O-])c2O)c1C | 1.34
CC(=O)O[C@H]1[C@H](OC(=O)CC(C)(O)CC(=O)O)C[C@]2(C)C3=C(CCC2C1(C)C)[C@]1(C)CC[C@H]([C@H]2CC[C@H](C(C)(C)O)OC2O)[C@@]1(C)[C@@H](O)C3 (stereo partly specified) | 1.56
COc1ccc(C2ON(c3cccc(C)n3)CC=C2C)cc1 (stereo unspecified) | 1.64
COc1ccc(C(=O)/C=C/c2cc(O)c(O)c(F)c2F)c(OC)c1 | 1.41
COc1cccc(/C=N/C(/N=C/c2cccc(OC)c2O)c2cccc(OC)c2O)c1O | 1.84
C=C1C(=O)O[C@H]2[C@H]1CC/C(Cn1cc(-c3ccccc3C(F)(F)F)nn1)=C\CC[C@@]1(C)O[C@@H]21 | 1.00
O=C(NC12CC3CC(CC(C3)C1)C2)C(=O)c1c[nH]c2ccccc12 | 1.72
O=C1C[C@@H]2/C(=C(O)\C=C\c3ccccc3)C(=O)C=C[C@@H]2O1 | 0.77
CCCSS[C@H]1NC(=O)[C@H]1NC(=O)COc1ccccc1 | 0.76

====

Tested on: NCI-H23 lung
Assay: NCI tumour cell line growth inhibition, 48 h

compound | TGI
N#CC1CC2(CCN1C(=O)c1ccccc1)OCCO2 (configuration not stated) | > 100 µM
CC1=C(C)Cc2c(O)ccc(O)c2C1 | > 100 µM
CN(C)CC/[N+]([O-])=C(/c1ccccc1)C12CC3CC(CC(C3)C1)C2 | 37.4 µM
CCOC(=O)NC(Nc1ccc(C(=O)OCC)cc1)(C(F)(F)F)C(F)(F)F | > 100 µM
N#Cc1cnc(N)nc1NCC1(CO)CC(CCc2ccccc2)C1 (configuration not stated) | > 100 µM
O=C1C(=Cc2c(O)cc(O)cc2O)C(=O)c2ccccc21 | > 53.9 µM
CCCC(=O)Nc1cc(/C=C/C(=O)N2CC(CCl)c3c2cc(O)c2[nH]cc(C)c32)n(C)c1 (configuration not stated) | < 2.5e-05 µM

====

Tested on: KM20L2 colon
Test: NCI tumour cell line growth inhibition, 48 h
endpoint: TGI

compound | result
O=C(NC12CC3CC(CC(C3)C1)C2)C(=O)c1c[nH]c2ccccc12 | 19.7 µM
Cc1cc2c(C)nn(Cc3ccc(Cl)cc3)c2c(C#N)c1C | > 100 µM
O=C1C(=Cc2c(O)cc(O)cc2O)C(=O)c2ccccc21 | > 57.6 µM
Cc1cc2c([nH]c3ccccc32)c2c1OC(C)(C)C1C3CC(C)(C)Oc4c(C)cc5c6ccccc6n(c5c43)C21 (stereo not given) | > 100 µM
O=c1cccccc1[O-].O=c1cccccc1[O-].O=c1cccccc1[O-].[La+3] | > 100 µM
O=C(O)CCc1nn2c(nc1=O)sc1ccc3ccccc3c12 | > 100 µM
NCCCNCCCCNC(=O)C(O)NC(=O)CCCCCCN=C(N)N (stereo not given) | 734 µM
CC1OC(n2cc(F)c(=O)[nH]c2=O)C=CC1=O (stereo not given) | 34.6 µM
O=C(Nc1ccc([N+](=O)[O-])cc1Cl)c1cccc([N+](=O)[O-])c1O | 10.2 µM
COc1cccc(NC(=O)/C(Cc2nc3ccccc3nc2C)=N/NC(=O)C[n+]2ccccc2)c1 | > 100 µM

====

Test system: SNB-78 CNS
Assay: NCI tumour cell line growth inhibition, 48 h

compound | TGI
CC1(C)C2C=CC1C(=O)CC2 (stereo unspecified) | > 100 µM
O=C(O)CCc1nn2c(nc1=O)sc1ccc3ccccc3c12 | > 100 µM
O=C1C(=Cc2c(O)cc(O)cc2O)C(=O)c2ccccc21 | 62.1 µM
N/C(=N\N=C\c1ccc2c(c1)OCCO2)NO | > 100 µM
COc1ccc(-c2cc3[nH]nc(N)c3c(=O)o2)cc1 | > 100 µM
CC(=O)OCC1OC(n2c(-c3ccc(C)cc3)cc(-c3ccccc3)c(C#N)c2=O)C(OC(C)=O)C(OC(C)=O)C1OC(C)=O (stereo unspecified) | > 100 µM

====

Each entry below lists one item and its recorded TGI value.
System: MDA-MB-231 breast
Test: NCI tumour cell line growth inhibition, 48 h

compound | readoutQualifier | TGI, µM
O=C(NCCCCCCNC(=O)c1cc(-c2ccccc2)nc2ccccc12)c1cc(-c2ccccc2)nc2ccccc12 | > | 100
O=C1c2ccccc2-c2c1c1ccccc1c(=O)n2CCCn1ccnc1 | = | 5.8
O=C(OC[C@H]1O[C@H](OC(=O)c2cc(O)c(O)c(OC(=O)c3cc(O)c(O)c(O)c3)c2)[C@H](OC(=O)c2cc(O)c(O)c(OC(=O)c3cc(O)c(O)c(O)c3)c2)[C@@H](OC(=O)c2cc(O)c(O)c(OC(=O)c3cc(O)c(O)c(O)c3)c2)[C@@H]1OC(=O)c1cc(O)c(O)c(OC(=O)c2cc(O)c(O)c(O)c2)c1)c1cc(O)c(O)c(OC(=O)c2cc(O)c(O)c(O)c2)c1 | > | 25
CC(=O)Nc1c(C)cc2c(nc3n2CCC3O)c1[N+](=O)[O-] (configuration not stated) | > | 100
Cc1ccc2c(c1)-c1nc(N)c(C#N)c(-c3ccccc3)c1CCS2(=O)=O | > | 100
C=C(c1ccccc1)[C@@]1(O)CC[C@@H]1N(CC#N)Cc1ccccc1 | = | 27.5
CN(C)c1ccc(/C=C/c2cc[n+](C)c(/C=C/c3ccc(N(C)C)cc3)c2)cc1 | = | 1.28

====

Tested on: EKVX NSCLC
Experiment: NCI tumour cell line growth inhibition, 48 h

compound | GI50
O=C1C[C@@H]2/C(=C(O)\C=C\c3ccccc3)C(=O)C=C[C@@H]2O1 | 13 µM
Cc1ncc(C(=O)Nc2ccc(CN3CCN(C)CC3)c(C(F)(F)F)c2)cc1C#Cc1cnc(N)cc1C#N | 1.12 µM
Cc1cc(N2CCOCC2)cc2[nH]c(-c3c(NC[C@@H](O)c4cccc(Cl)c4)cc[nH]c3=O)nc12 | 1.62 µM
CN(C)CCCNC(=O)c1cc(NC(=O)c2cc(NC(=O)CCNS(=O)(=O)c3ccc4c(c3)C(=O)c3ccccc3C4=O)cn2C)cn1C | > 100 µM
C#CCOc1cccc(Nc2ncnc3cc(NC(=O)CCl)ccc23)c1 | 12 µM
CCOC(=O)c1c2c(n3ccccc13)C(=O)c1ncccc1C2=O | 1.13 µM
COC(C)(C)C/C=C/C(C)=C/C=C/C(C)=C\C=C\C(C)=C\C=C\C=C(C)\C=C\C=C(C)\C=C\C=C(C)\C=C\CC(C)(C)OC | > 150 µg/mL
O=C1C(Cl)=C(NCc2ccco2)C(=O)c2ccccc21 | 37.3 µM
COc1ccc(-c2ccc(-c3ccc(C(=N)N)o3)o2)cc1 | 2.79 µM
CCNC(=O)O[C@H]1CN[C@H](C#Cc2cc3ncnc(Nc4ccc(OCc5cccc(F)c5)c(Cl)c4)c3s2)C1 | 0.668 µM
O=C(OC[C@H]1O[C@H](OC(=O)c2cc(O)c(O)c(OC(=O)c3cc(O)c(O)c(O)c3)c2)[C@H](OC(=O)c2cc(O)c(O)c(OC(=O)c3cc(O)c(O)c(O)c3)c2)[C@@H](OC(=O)c2cc(O)c(O)c(OC(=O)c3cc(O)c(O)c(O)c3)c2)[C@@H]1OC(=O)c1cc(O)c(O)c(OC(=O)c2cc(O)c(O)c(O)c2)c1)c1cc(O)c(O)c(OC(=O)c2cc(O)c(O)c(O)c2)c1 | 5.2 µM
C=C1CC2(OC1=O)C(=O)Nc1ccccc12 (centres undefined) | 13.5 µM
COc1cc(-c2nc(SCCC(C)C)nc(Nc3ccc(S(N)(=O)=O)cc3)c2C#N)cc(OC)c1OC | 3.42 µM
CCN(CC)c1ccc(C(=O)c2ccc(N(CC)CC)cc2)cc1 | 1.19 µM
